- procedure details: Ivacaftor solubility in the release medium
- Format: physicochemical
- assay context: release medium (polysorbate 80 in DPBS), aqueous with cosolvent or surfactant or cyclodextrin; 0.4% v/v polysorbate 80 in 1×DPBS, 37° C.

| structure string | solubility (µg/mL) |
| --- | --- |
| CC(C)(C)c1cc(C(C)(C)C)c(NC(=O)c2c[nH]c3ccccc3c2=O)cc1O | 272 |

====

- procedure details: Phase solubility of ivacaftor in cyclodextrin solutions
- Assay type: physicochemical
- assay context: βCD solution, aqueous with cosolvent or surfactant or cyclodextrin, thermodynamic from solid; 10 μM βCD; read-out: ivacaftor solubility in βCD solution

| compound | solubility at 3 days, µg/mL |
| --- | --- |
| CC(C)(C)c1cc(C(C)(C)C)c(NC(=O)c2c[nH]c3ccccc3c2=O)cc1O [Ivacaftor] | 1.2 |
